Target: human PAD4 (hPAD4) (Homo sapiens, UniProt Q9UM07)
Sequence (Q9UM07 whole entry): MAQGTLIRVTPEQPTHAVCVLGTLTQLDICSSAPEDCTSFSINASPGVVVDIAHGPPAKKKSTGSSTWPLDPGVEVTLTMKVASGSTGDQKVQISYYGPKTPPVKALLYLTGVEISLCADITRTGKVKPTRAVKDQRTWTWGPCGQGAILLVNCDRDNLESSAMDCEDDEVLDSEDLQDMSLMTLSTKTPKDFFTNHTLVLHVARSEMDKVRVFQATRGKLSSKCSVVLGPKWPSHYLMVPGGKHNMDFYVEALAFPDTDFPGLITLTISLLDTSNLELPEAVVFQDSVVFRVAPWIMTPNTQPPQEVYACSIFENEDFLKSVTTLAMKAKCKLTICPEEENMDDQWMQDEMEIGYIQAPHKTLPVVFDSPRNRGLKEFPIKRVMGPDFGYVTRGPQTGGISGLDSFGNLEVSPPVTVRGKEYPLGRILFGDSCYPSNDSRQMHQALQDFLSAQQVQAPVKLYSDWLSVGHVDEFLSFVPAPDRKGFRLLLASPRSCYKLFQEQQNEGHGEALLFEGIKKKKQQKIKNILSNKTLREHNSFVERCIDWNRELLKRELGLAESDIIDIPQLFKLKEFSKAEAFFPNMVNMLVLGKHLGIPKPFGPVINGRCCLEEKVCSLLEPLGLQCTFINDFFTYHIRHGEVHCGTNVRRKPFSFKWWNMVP
Experiment: RFMS human PAD4 functional assay (rapid-fire mass spectrum)
Settings: 5 nM hPAD4 enzyme, 250 μM BAEE, 50 μM Calcium; 30 min preincubation, 90 min reaction at 37° C.
pIC50: −log10 of the molar value.
We use 7 as the dividing line for pIC50: on or above the line is true, below is false.

COc1cc(C(=O)N2C[C@H](N)C[C@@H](F)C2)cc2nc(-c3cc4cccnc4n3CC3CC3)n(Cc3cnn(-c4cncc(C#N)c4)c3)c12: true
COc1cc(C(=O)N2CC3CCC2[C@@H]3N)cc2nc(-c3cc4cccnc4n3CC3CC3)n(Cc3nc[nH]n3)c12 (stereo partly drawn): false

Would you say COc1cc(C(=O)N2C[C@H]3CC[C@@H]2[C@@H]3N)cc2nc(-c3cc4cccnc4n3CC3CC3)n(CCNS(C)(=O)=O)c12 shows pIC50 at minimum 7?
false

* * *

Molecular target: human PAD4 (hPAD4) (Homo sapiens, UniProt Q9UM07)
Assay: RFMS human PAD4 functional assay (rapid-fire mass spectrum)
Assay type: biochemical
Settings: 5 nM hPAD4 enzyme, 250 μM BAEE, 50 μM Calcium; 30 min preincubation, 90 min reaction at 37° C.
readoutName: log10 IC50 (log10 of the value in nM)
Heads up, the numbers here are log10 of IC50 in nM units.

Past entries and their recorded results:
COc1cc(C(=O)N2CC3CCC2[C@@H]3N)cc2nc(-c3cc4ccccc4n3CC3CC3)n(Cc3ccn(C)n3)c12 (stereo partly drawn): 1.96
COC(=O)NCCn1c(-c2cc3cccnc3n2CC2CC2)nc2cc(C(=O)N3C[C@H]4CC[C@@H]3[C@@H]4N)cc(OC)c21: 2.97
COc1cc(C(=O)N2C[C@H]3CC[C@@H]2[C@@H]3N)cc2nc(-c3cc4cccnc4n3CC3CC3)n(CC3CN(c4nnc(C)o4)C3)c12: 2.22
COc1cc(C(=O)N2CC3CCC2[C@@H]3N)cc2nc(-c3cc4cccnc4n3CC3CC3)n([C@H]3C[C@H](NC(C)=O)C3)c12 (stereo partly drawn): 3.08
COc1cc(C(=O)N2CC3CCC2[C@@H]3N)cc2nc(-c3cc4cccnc4n3CC3CC3)n(CC3CN(S(=O)(=O)c4cccc(F)c4)C3)c12 (stereo partly drawn): 2.35

Next compound, log10 IC50 to be filled in.
What does the data say about its log10 IC50? Entry: COc1cc(C(=O)N2C[C@H]3CC[C@@H]2[C@@H]3N)cc2nc(-c3cc4cccnc4n3CC3CC3)n(CC3CN(C(=O)c4ccncn4)C3)c12
1.71

* * *

Target: human PAD4 (hPAD4) (Homo sapiens)
Test: RFMS human PAD4 functional assay (rapid-fire mass spectrum)
Conditions: 5 nM hPAD4 enzyme, 250 μM BAEE, 50 μM Calcium; 30 min preincubation, 90 min reaction at 37° C.
Each entry below lists one item and its recorded IC50 value.
Could you kindly put the unit after your number?

Past entries and their recorded results:
COc1cc(C(=O)N2C[C@H]3CC[C@@H]2[C@@H]3N)cc2nc(-c3cc4cccnc4n3C)n(CC3CN(c4cncnc4C#N)C3)c12 [Example 60]: 0.171 µM
COc1cc(C(=O)N2C[C@H]3CC[C@@H]2[C@@H]3N)cc2nc(-c3cc4cccnc4n3CC3CC3)n(CC3CCN(C(=O)c4ccncn4)CC3)c12: 0.315 µM

What does the data say about its IC50? Entry: COc1cc(C(=O)N2CC3CCC2[C@@H]3N)cc2nc(-c3cc4ccccc4n3CC3CC3)n(CC3CN(C(=O)c4ccc(C#N)cn4)C3)c12 (stereo partly drawn)
0.034 µM

What does the data say about its IC50? Entry: COc1cc(C(=O)N2CC3CCC2[C@@H]3N)cc2nc(-c3cc4ccccc4n3CC3CC3)n(CC3CN(C(=O)c4cscn4)C3)c12 (stereo partly drawn)
0.053 µM

What does the data say about its IC50? Entry: COc1cc(C(=O)N2C[C@H]3CC[C@@H]2[C@@H]3N)cc2nc(-c3cc4ccccc4n3CC3CC3)n(Cc3ccc(N)nc3)c12
0.011 µM

What does the data say about its IC50? Entry: COc1cc(C(=O)N2C[C@H](N)C[C@@H](F)C2)cc2nc(-c3cc4cccnc4n3CC3CC3)n(Cc3cnn(-c4ncccn4)c3)c12
0.059 µM

What does the data say about its IC50? Entry: COc1cc(C(=O)N2C[C@H]3CC[C@@H]2[C@@H]3N)cc2nc(-c3cc4cccnc4n3CC3CC3)n(CC3CN(c4ncc(C#N)cc4Br)C3)c12
0.078 µM

What does the data say about its IC50? Entry: COc1cc(C(=O)N2C[C@H]3CC[C@@H]2[C@@H]3N)cc2nc(-c3cc4cccnc4n3CC3CC3)n(C3CCN(C(=O)c4ccnc(C#N)c4)CC3)c12
1.44 µM

What does the data say about its IC50? Entry: COc1cc(C(=O)N2C[C@H]3CC[C@@H]2[C@@H]3N)cc2nc(-c3cc4cccnc4n3C)n(C[C@H]3CCN(c4cncc(C#N)c4)C3)c12
0.148 µM

What does the data say about its IC50? Entry: CCC#CC(=O)N1CC(Cn2c(-c3cc4cccnc4n3CC3CC3)nc3cc(C(=O)N4C[C@H]5CC[C@@H]4[C@@H]5N)cc(OC)c32)C1
0.04 µM

What does the data say about its IC50? Entry: COc1cc(C(=O)N2C[C@H]3CC[C@@H]2[C@@H]3N)cc2nc(-c3cc4cccnc4n3C)n(C[C@H]3CCN(c4ccnc(C)n4)C3)c12
0.099 µM

What does the data say about its IC50? Entry: COc1cc(C(=O)N2CC3CCC2[C@@H]3N)cc2nc(-c3cc4cccnc4n3CC3CC3)n([C@H]3C[C@@H](C(N)=O)C3)c12 (stereo partly drawn)
0.456 µM
